target: USP20 zf-UBP domain (human) (UniProt Q9Y2K6); test: fluorescence polarisation; displacement: serial dilution of the unlabelled peptide against the domain (at two-fold the KD of the FITC-labelled peptide) in complex with 10 nM FITC-labelled peptide; 50 mM phosphate buffer pH 7.4; room temperature; three technical replicates; sigmoidal dose-response fit
Sequence (Q9Y2K6 whole entry, the tested form may be a part): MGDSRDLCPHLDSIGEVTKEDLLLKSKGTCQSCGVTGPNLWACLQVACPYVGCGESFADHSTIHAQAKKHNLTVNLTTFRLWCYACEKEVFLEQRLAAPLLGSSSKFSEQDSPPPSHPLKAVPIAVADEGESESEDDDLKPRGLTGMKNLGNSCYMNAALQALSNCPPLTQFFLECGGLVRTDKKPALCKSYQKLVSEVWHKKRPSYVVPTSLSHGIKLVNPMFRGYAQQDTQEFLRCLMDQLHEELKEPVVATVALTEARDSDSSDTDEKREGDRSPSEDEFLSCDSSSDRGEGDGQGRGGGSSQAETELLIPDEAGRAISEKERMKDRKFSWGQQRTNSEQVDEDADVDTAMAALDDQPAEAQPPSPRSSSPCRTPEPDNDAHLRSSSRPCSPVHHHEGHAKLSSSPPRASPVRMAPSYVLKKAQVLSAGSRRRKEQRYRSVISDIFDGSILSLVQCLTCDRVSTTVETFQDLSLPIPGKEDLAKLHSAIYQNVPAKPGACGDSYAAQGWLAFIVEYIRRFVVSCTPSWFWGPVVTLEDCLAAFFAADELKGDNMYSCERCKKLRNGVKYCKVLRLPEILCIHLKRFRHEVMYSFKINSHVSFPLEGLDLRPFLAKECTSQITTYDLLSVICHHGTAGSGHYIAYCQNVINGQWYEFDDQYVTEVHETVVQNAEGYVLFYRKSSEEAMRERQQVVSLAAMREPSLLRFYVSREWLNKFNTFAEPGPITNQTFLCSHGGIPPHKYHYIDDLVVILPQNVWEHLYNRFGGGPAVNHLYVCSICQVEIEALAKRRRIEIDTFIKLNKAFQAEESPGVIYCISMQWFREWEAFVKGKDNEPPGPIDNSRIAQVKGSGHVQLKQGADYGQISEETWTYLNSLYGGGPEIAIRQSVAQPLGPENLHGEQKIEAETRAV
READOUT TYPE: Kd (µM)

[
  {
    "BINDER": "Ac-YPFQPGRMALESQSPG-NH2 [USP19 874-888 peptide]",
    "UNIT ANNOTATION": "µM",
    "OBSERVED MEASUREMENT": 162
  },
  {
    "BINDER": "Ac-YTNSSGKMALNSPQPG-NH2 [IRAG1 302-316 peptide]",
    "UNIT ANNOTATION": "µM",
    "OBSERVED MEASUREMENT": 9.02
  },
  {
    "BINDER": "Ac-YLQPSSKASLESTSDL-NH2 [CEP192 2073-2087 peptide]",
    "UNIT ANNOTATION": "µM",
    "OBSERVED MEASUREMENT": 37.1
  },
  {
    "BINDER": "Ac-YEKVKRRLDLDID-NH2 [CCP110 582-593 peptide]",
    "UNIT ANNOTATION": "µM",
    "OBSERVED MEASUREMENT": 505
  }
]
